Biological target: Tim-3 (form used in the assay not stated) (human, UniProt Q8TDQ0 22-202, limits assumed)
Sequence (Q8TDQ0 22-202 R140L limits assumed): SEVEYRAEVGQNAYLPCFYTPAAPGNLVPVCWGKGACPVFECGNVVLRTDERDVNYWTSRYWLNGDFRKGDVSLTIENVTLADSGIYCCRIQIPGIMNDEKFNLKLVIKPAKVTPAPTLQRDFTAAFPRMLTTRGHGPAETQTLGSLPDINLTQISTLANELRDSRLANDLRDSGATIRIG
Experiment: SPR, Fab, Test 1
Would you mind telling me the reported kon of each entry?
# output: number + unit

q: Dear colleague, I am looking for the recorded kon of the following binder: hu425-2-3b Fab (Fab, V domains shown, Fab prepared from the mAb with the Pierce Fab Preparation Kit; Only the variable domains are tied to the name) VH: EVQLVESGGGLVQPGGSLRLSCAASGFTFSRYAMSWVRQAPGKGLEWVAAISSGGSLYYPDSVKGRFTISRDNAKNTLYLQMNSLRAEDTAVYYCARGREADGGYFDYWGQGTLVTVSS VL: EIVLTQSPATLSVSPGERATLSCRASESVEYYGTSLMQWYQQKPGQAPRLLIYAASNVESGIPARFSGSGSGTEFTLTISSLQSEDFAVYYCQQSLKVPLTFGGGTKVEIK
a: 1.6e+06 M⁻¹ s⁻¹

q: What about this binder? ch425 Fab (Fab, V domains shown, Fab prepared from the mAb with the Pierce Fab Preparation Kit) VH: EVKLVESGGGLVKPGGSLKLSCAASGFTFSRYAMSWVRQIPEKRLEWVAAISSGGSLYFPDSVKGRFTISRDNARNICYLQMNSLRSDDTAMYYCARGREADGGYFDYWGQGTTLTVSS VL: DIVLTQSPASLAVSLGQRATISCRASESVEYYGTSLMQWYQQKPGQPPKLLIYAASNVESGVPARFSGSGSGTDFSLNIHPVEEDDIAMYFCQQSMKVPLTFGAGTKLELKR
a: 1.67e+06 M⁻¹ s⁻¹

q: What about this binder? hu425-1-1 Fab (Fab, V domains shown, Fab prepared from the mAb with the Pierce Fab Preparation Kit) VH: EVQLVESGGGLVQPGGSLRLSCAASGFTFSRYAMSWVRQAPGKGLEWVAAISSGGSLYFPDSVKGRFTISRDNAKNSCYLQMNSLRAEDTAVYYCARGREADGGYFDYWGQGTLVTVSS VL: DIVLTQSPATLSVSPGERATLSCRASESVEYYGTSLMQWYQQKPGQAPRLLIYAASNVESGVPARFSGSGSGTDFTLTISSLQSEDFAVYYCQQSMKVPLTFGGGTKVEIKR
a: 679000 M⁻¹ s⁻¹

q: What about this binder? hu425-2-2 Fab (Fab, V domains shown, Fab prepared from the mAb with the Pierce Fab Preparation Kit; Only the variable domains are tied to the name. hu425s were engineered in the human IgG1 format) VH: EVQLVESGGGLVQPGGSLRLSCAASGFTFSRYAMSWVRQAPGKGLEWVAAISSGGSLYYPDSVKGRFTISRDNAKNTLYLQMNSLRAEDTAVYYCARGREADGGYFDYWGQGTLVTVSS VL: EIVMTQSPATLSVSPGERATLSCRASESVEYYGTSLMQWYQQKPGQAPRLLIYAASNVESGIPARFSGSGSGTEFTLTISSLQSEDFAVYYCQQSLKVPLTFGGGTKVEIK
a: 1.71e+06 M⁻¹ s⁻¹
